Provenance of the data: patent US11634477

# Tested on: SARS-CoV-2 RBD (SARS-CoV-2, UniProt P0DTC2)
# Test summary: ELISA
Measured property: EC50 (ng/mL)
Field: numeric (ng/mL). Do not append units.

# Binder, EC50 [ng/mL]
rows = [
    ("C129 (antibody, V domains shown) VH: QVQLVESGGGVVQPGRSLRLSCAASGFTFSSYGMNWVRQAPGKGLEWVAVISYDGSNTYYTDSVKGRFTISRDNSKNTLYLQMNSLRVDDTATYYCAKGPRFGWSYRGGSGFDIWGQGTMVTVSS VL: DIQMTQSPSSLSASVGDRVTITCQASQDISNYLNWYQQKPGKAPKLLIYDASNLETGVPSRFSGSESGTDFTFTISSLQPEDIATYYCQQYDNLPITFGQGTRLEIK", 1.16),
]

Please examine the following record next.
Lab book: EC50 of C108 (antibody, V domains shown) VH: QVQLQESGPGLVKPSGTLSLTCAVSGGSISSTNWWSWVRQPPGKGLEWIGEIYHTGSTNYNPSLKSRVTISVDKSKNQFSLKLSSVTAADTAVYYCVRDGGRPGDAFDIWGQGTMVTVSS VL: QSALTQPASVSGSPGQSITISCTGTSSDVGGYNYVSWYQQHPGKAPKLMIYDVSNRPSGVSNRFSGSKSGNTASLTISGLQAEDEADYYCNSYTSSSTRVFGTGTKVTVL noted as 5.32
